As shown below, each of these binders has a reported IC50 of U87 cell proliferation (BrdU) value.
Experimental system: recombinant human HGF (hepatocyte growth factor) (human, UniProt P14210 32-728)
Sequence (P14210 32-728 limits assumed): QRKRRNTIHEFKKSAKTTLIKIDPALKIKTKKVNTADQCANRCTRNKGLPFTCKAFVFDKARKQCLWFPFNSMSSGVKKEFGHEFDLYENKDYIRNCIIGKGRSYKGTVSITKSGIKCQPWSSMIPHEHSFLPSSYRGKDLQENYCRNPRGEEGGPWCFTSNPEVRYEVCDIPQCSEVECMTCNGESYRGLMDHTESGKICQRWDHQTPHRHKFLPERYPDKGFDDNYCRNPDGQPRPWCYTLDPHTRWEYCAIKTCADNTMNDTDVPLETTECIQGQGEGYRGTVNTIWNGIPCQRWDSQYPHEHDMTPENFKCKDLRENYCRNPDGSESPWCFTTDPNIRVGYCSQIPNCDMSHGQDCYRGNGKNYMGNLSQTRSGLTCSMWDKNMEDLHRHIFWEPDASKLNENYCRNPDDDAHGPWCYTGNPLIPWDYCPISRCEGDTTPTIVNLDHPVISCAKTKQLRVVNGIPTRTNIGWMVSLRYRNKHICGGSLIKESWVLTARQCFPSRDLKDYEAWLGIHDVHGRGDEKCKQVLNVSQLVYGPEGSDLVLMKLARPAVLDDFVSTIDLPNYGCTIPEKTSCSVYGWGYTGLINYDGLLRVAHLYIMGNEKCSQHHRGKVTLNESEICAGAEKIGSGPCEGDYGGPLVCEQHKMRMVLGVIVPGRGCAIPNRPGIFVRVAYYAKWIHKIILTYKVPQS
Test details: cell-based or functional assay
API: value field is a number in nM; no unit string.

Some binders with known IC50 of U87 cell proliferation (BrdU) results, for comparison:
Binder	IC50 of U87 cell proliferation (BrdU), nM
DARPin #57 (designed binder) MRGSHHHHHHGSDLGKKLLEAARAGQDDEVRILMANGADVNAHDYLGLTPLHLAASDGHLEIVEVLLKHGADVNAYDYNGLTPLHLAANNGHLEIVEVLLKYGADVNAFDVAGYTPLHLAAYFGHLEIVEVLLKYGADVNAQDKFGKTAFDISIDNGNEDLAEILQKLN	730
DARPin #51 (designed binder) MRGSHHHHHHGSDLGKKLLEAARAGQDDEVRILLKAGADVNAKDRYGDTPLHLAADIGHLEIVEVLLKAGADVNAEDYFGNTPLHLAASYGHLEIVEVLLKAGADVNAKDDYGNTPLHLAANTGHLEIVEVLLKAGADVNAQDKSGKTPADLAADAGHEDIAEVLQKLN	116

Input: Query (binder): DARPin #37 (designed binder) MRGSHHHHHHGSDLGKKLLEAARAGQDDEVRILMANGADVNATDLTGFTPLHLAAYYGHLEIVEVLLKYGADVNADDRYGLTPLHLAANTGHLEIVEVLLKNGADVNASDSVGTTLLHLAAYIGHPEIVEVLLKYGADVNAQDKFGKTAFDISIDNGNEDLAEILQKLN ; field requested: IC50 of U87 cell proliferation (BrdU)
Output: 400
